Tested on: DU-145 prostate
protocol: NCI tumour cell line growth inhibition, 48 h
TGI values, listed per item

Please review the entries below; each comes with its answer.
compound	TGI
CO/N=C(\C(=O)Nc1cncs1)c1csc(N)n1	> 10 µM
Cc1cc(O)c(C=NC(=S)c2ccccc2)c(=O)o1	> 100 µM
CC1(C)N=C(N)N=C(N)N1c1cccc(CCCCOc2ccccc2)c1	> 100 µM
C/C(=N\Nc1nc2ccccc2s1)c1cnccn1	> 100 µM
Cc1c(-c2nnc(-c3ccc(F)cc3)o2)nnn1-c1ccnc2c(C(F)(F)F)cccc12	> 100 µM
O=C(O)c1c[nH]c2c(OCc3ccccc3)c3ccccc3c(O)c2c1=O	37.2 µM
COc1ccc2oc(=O)c(-c3nc4ccccc4o3)cc2c1	> 100 µM
CN(C)CCNC1=CC(=O)c2nc3ccccc3c3ccnc1c23	22.4 µM

# input For the compound O=C1c2cc([N+](=O)[O-])cc3cc([N+](=O)[O-])cc(c23)C(=O)N1CCCNCCNCCCN1C(=O)c2cc([N+](=O)[O-])cc3cc([N+](=O)[O-])cc(c23)C1=O , report TGI.
# output 19.4 µM

# input For the compound COc1ccccc1/C=C/c1c(N)ncnc1Nc1cccc(Cl)c1 , report TGI.
# output > 100 µM

# input For the compound COc1cc2c(cc1OC)-c1c(oc3cc(OC4OC(CO)C(O)C(O)C4O)c(OC)cc3c1=O)C(O)O2 (configuration not stated) , report TGI.
# output > 100 µM

# input For the compound COc1cccc(Cn2c(-c3nonc3NC(C)=O)nc3ccccc32)c1 , report TGI.
# output 83.9 µM

# input For the compound O=C(O)c1ccccc1-c1ccccc1C(=O)Nc1ccc2c(c1)[nH]c(=O)c1ccccc12 , report TGI.
# output > 100 µM

* * *

TGI values, listed per item
Tested on: KM12 colon
protocol: NCI tumour cell line growth inhibition, 48 h

Please review the entries below; each comes with its answer.
molecule	TGI
N#Cc1c(N)nc(NCc2ccccc2)c(C#N)c1-c1ccccc1Cl	> 100 µM
COc1nc(N)nc2c1ncn2[C@@H]1O[C@H](CO)[C@@H](O)[C@@H]1O	> 100 µM
COC(=O)C(Cc1c(C2Nc3ccccc3C2CC(NC(C)=O)C(=O)OC)[nH]c2ccccc12)NC(C)=O (stereo not drawn)	> 100 µM
NC(=O)CCC(CCC(N)=O)(CCC(N)=O)[N+](=O)[O-]	> 100 µM
COc1ccc2c(c1)CCN1CCCc3ccc(OC)cc3C21 (stereo not drawn)	> 100 µM

# input For the molecule Cc1ccc([N+](=O)[O-])cc1S(=O)(=O)Nc1ccc(C2=NN(C(=O)c3ccccc3)C(c3cccs3)C2)cc1 (stereo not drawn) , report TGI.
# output > 100 µM

# input For the molecule COC(=O)c1cc(C)ccc1C1CN=NC12Cc1cccc(C)c1C2=O (stereo not drawn) , report TGI.
# output 79.7 µM

* * *

Test system: SK-MEL-5 melanoma
protocol: NCI tumour cell line growth inhibition, 48 h
quantity: TGI

compound	TGI
CNC(=O)C1CCCN1C(=O)C(Cc1cnc[nH]1)NC(=O)C1CCC(=O)N1 (stereo unspecified)	> 100 µM
c1ccc2sc(C3(N4CCC5(CC4)OCCO5)CCCCC3)cc2c1	> 100 µM
CCOC(=O)N[C@@H]1C2CC(=O)C(O2)[C@@H]1OC (stereo partly specified)	> 100 µM

# input For the compound O=Nc1sc(=N\O)/c(=N/O)sc1NO , report TGI.
# output > 100 µM

# input For the compound COC(=O)Cc1c(/C=C/C(C)(C)n2cnc(CCN3C(=O)CCC3=O)c2)[nH]c2ccccc12 , report TGI.
# output > 100 µM

# input For the compound N#Cc1c(N)nc(NCc2ccccc2)c(C#N)c1-c1ccccc1Cl , report TGI.
# output > 100 µM

# input For the compound CC(C(=O)O)/C(=C\c1ccc2c(c1)OCO2)C(=O)O (stereo unspecified) , report TGI.
# output > 100 µM

# input For the compound O=C(NC1CCCCC1)NS(=O)(=O)c1ccc(-n2nc3c(c2-c2ccc(Cl)cc2)Cc2ccccc2-3)cc1 , report TGI.
# output 40.2 µM

# input For the compound O=C(Cc1ccccc1)NC(c1ccc(Cl)cc1)c1c(O)ccc2ccccc12 (stereo unspecified) , report TGI.
# output 3.2 µM

# input For the compound COC(=O)C(Cc1c(C2Nc3ccccc3C2CC(NC(C)=O)C(=O)OC)[nH]c2ccccc12)NC(C)=O (stereo unspecified) , report TGI.
# output > 100 µM

Data credit: PubChem BioAssay (NCI)
